- target: BRD3–BD1, BRD4–BD1, and BRD2–BD1
- procedure details: SPR, stated jointly for the BD1 domains
- Format: binding, human
- assay context: range over BRD3–BD1, BRD4–BD1 and BRD2–BD1; BD immobilized, peptide flowed; equilibrium steady state affinity analysis; read-out: Affinities (KD) for the three BD1 domains, SPR
pKd: −log10 of the molar value.
property: pKd

The recorded pKd for entry Ac-AQRSLK(Ac)LLK(Ac)HLYH-NH2 (C-terminus assumed) [2AcK] equals 5.70 to 6.00

The reported numbers originate from paper PMC10758951.
